- study-target: menin-MLL interaction (Homo sapiens)
- Sequence (O00255 whole entry): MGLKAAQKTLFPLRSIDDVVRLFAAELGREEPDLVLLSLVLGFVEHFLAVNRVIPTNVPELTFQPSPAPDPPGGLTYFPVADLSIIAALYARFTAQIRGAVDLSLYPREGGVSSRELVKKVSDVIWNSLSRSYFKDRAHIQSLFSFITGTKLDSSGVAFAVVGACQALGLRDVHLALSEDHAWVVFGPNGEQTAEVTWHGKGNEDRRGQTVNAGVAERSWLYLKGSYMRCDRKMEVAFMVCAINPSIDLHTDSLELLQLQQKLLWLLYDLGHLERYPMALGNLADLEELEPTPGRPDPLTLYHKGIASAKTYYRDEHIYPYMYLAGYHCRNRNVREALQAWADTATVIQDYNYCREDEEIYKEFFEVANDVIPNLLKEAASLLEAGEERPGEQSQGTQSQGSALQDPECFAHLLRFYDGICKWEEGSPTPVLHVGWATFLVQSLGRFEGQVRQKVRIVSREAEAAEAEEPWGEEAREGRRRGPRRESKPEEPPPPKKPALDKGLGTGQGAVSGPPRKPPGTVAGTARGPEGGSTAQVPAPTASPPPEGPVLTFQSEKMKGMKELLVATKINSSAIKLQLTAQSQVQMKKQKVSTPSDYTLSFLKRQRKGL
- experimental-protocol: Fluorescence polarization (FP) competition assay of the menin-MLL interaction
- condition-details: inhibition of the menin-MLL interaction; read-out: IC50 values for Table 1 inhibitors of menin
measured-quantity: IC50

Dear colleague, could you please provide IC50 for the molecules listed below?
1. Cc1c(CN2CCC(Nc3ncnc4sc(CC(F)(F)F)cc34)CC2)ccc2c1cc(C#N)n2CCc1ccc(N)c(S(C)(=O)=O)c1 [Compound 104]
2. C/C=C/C(=O)Nc1ccc(CCn2c(C#N)cc3c(C)c(CN4CCC(Nc5ncnc6sc(CC(F)(F)F)cc56)CC4)ccc32)cn1 [Compound 106]
3. C=CC(=O)N1CC2CCC(C1)N2CCn1c(C#N)cc2c(C)c(CN3CCC(Nc4ncnc5sc(CC(F)(F)F)cc45)CC3)ccc21 [Compound 229]

[reply]
1: 30 to 100 nM; 2: 30 to 100 nM; 3: < 30 nM

Ref: patent USRE49687E1
